tested on: CCRF-CEM leukemia; assay: NCI-60 one-dose screen, 48 h; conditions: 10 µM unless noted
About 83,000 compounds went through this panel and 20% of them were active in at least one assay; those are over-represented in the sample as a whole. The source made the active and inactive calls. How the source made its calls: active means growth percent below 10; inactive means the rest.
The reply should be one of these categories: TRUE for active, FALSE for inactive

What did this assay record as the result for CCCc1cc2cc(-n3nc(C)c4c3CC(C)(C)CC4=O)cc(NC3CCC(O)CC3)c2c(=O)[nH]1 (centres undefined) ?
FALSE

Consider next the molecule COc1ccc(-c2cc3c(oc2=O)-c2ccccc2OC3OC(C)=O)cc1 (centres undefined) in the same way.
TRUE

Consider next the molecule CC1=CC2c3oc(-c4ccccc4)c(C(=O)c4ccccc4)c3CNC2C=C1 (centres undefined) in the same way.
FALSE

Consider next the molecule COc1ccc(C(=O)c2cc(OC)c(OC)c(OC)c2)cc1/C=C/C(=O)c1ccc(F)cc1 in the same way.
TRUE

Consider next the molecule COc1cc(C2CC(c3ccc(Cl)cc3)=NN2c2ccc(Cl)cc2)cc(OC)c1OC (centres undefined) in the same way.
FALSE

Consider next the molecule CC(C)NC[C@@H](C(=O)N1CCN(c2ncnc3c2[C@H](C)C[C@H]3O)CC1)c1ccc(Cl)cc1 in the same way.
FALSE

Consider next the molecule Cc1cc(-c2cc(OC(=O)c3ccccc3)ccc2Cl)cc2nnc(Nc3ccc(OCCN4CCCC4)cc3)nc12 in the same way.
TRUE

Consider next the molecule Cc1cnc(NC(=O)Nc2cc(Br)c(C)cc2OC[C@@H]2CNCCO2)cn1 in the same way.
TRUE

====

test system: A549/ATCC NSCLC; test: NCI-60 one-dose screen, 48 h (100 = growth as untreated, 0 = no growth, -100 = all killed); conditions: 10 µM unless noted
The panel holds about 83,000 compounds, 20% with a hit somewhere; the sample as a whole holds those more often.
// NB: equality with 20% counts as not fulfilled; only growth strictly below is fulfilled

[[record]]
molecule = "CC(=O)CC1CCCC1c1ccc2ccccc2c1 (configuration not stated)"
subject_of_test = "A549/ATCC NSCLC"
assigned_label = "not fulfilled"


Confirm or reject: growth of O=C(Nc1ccc(C(=O)Nc2ccc(C3=NCCCN3)cc2)cc1)Nc1ccc(C2=NCCCN2)cc1 lies strictly below 20%
not fulfilled

Consider next the molecule CCOC(=O)C1=C(C)NC(=O)NC1c1cc(=O)oc2ccc(C)cc12 (configuration not stated) in the same way.
not fulfilled

Consider next the molecule COc1cnc2c(c1)C(=O)c1c-2n(CCCN2CCOCC2)c(=O)c2cc(Cl)ccc12 in the same way.
not fulfilled

Consider next the molecule COc1ccc(-c2ccc3c(N4CCOC[C@@H]4C)nc(N4CCOC[C@@H]4C)nc3n2)cc1CO in the same way.
fulfilled

Consider next the molecule CC(=O)C(C(C)=O)C(c1ccccc1)C(C(C)=O)C(C)=O in the same way.
not fulfilled

Consider next the molecule COC(=O)C1CCc2sc3ncnc(Nc4cn[nH]c4C(=O)Nc4ccc(CN5CCN(C)CC5)cc4)c3c21 (configuration not stated) in the same way.
fulfilled

Consider next the molecule CCCC(=O)OCC1OC(n2cnc3c(=S)nc(N)[nH]c32)C(OC(=O)CCC)C1OC(=O)CCC (configuration not stated) in the same way.
not fulfilled

Consider next the molecule Cc1cc(-c2cc(O)ccc2Cl)cc2nnc(Nc3ccc(OCCN4CCCC4)cc3)nc12 in the same way.
fulfilled

Consider next the molecule Cc1nn(-c2nc3ccccc3[nH]2)c2c1C(c1ccc(O)cc1)CC(=O)N2 (configuration not stated) in the same way.
not fulfilled

====

tested on: SF-539 CNS; assay: NCI-60 one-dose screen, 48 h (100 = growth as untreated, 0 = no growth, -100 = all killed); settings: 10 µM unless noted
The panel holds about 83,000 compounds, 20% with a hit somewhere; the sample as a whole holds those more often.
// NB: equality with 20% counts as not fulfilled; only growth strictly below is fulfilled

[[record]]
molecule = "O=S1(=O)OC(c2cc(Cl)c(O)c(Br)c2)(c2cc(Cl)c(O)c(Br)c2)c2ccccc21"
subject_of_test = "SF-539 CNS"
assigned_label = "not fulfilled"

[[record]]
molecule = "COC(=O)c1ccc2c(C(=Nc3ccc(N(C)C(=O)CN4CCN(C)CC4)cc3)c3ccccc3)c(O)[nH]c2c1"
subject_of_test = "SF-539 CNS"
assigned_label = "not fulfilled"

[[record]]
molecule = "Cc1ccc(C(=O)Nc2ccc(CN3CCN(C)CC3)c(C(F)(F)F)c2)cc1C#Cc1cnc2cccnn12"
subject_of_test = "SF-539 CNS"
assigned_label = "fulfilled"

[[record]]
molecule = "COc1cc(NC2CCC(=O)N2c2ccc(Cl)cc2Cl)cc(OC)c1OC (centres undefined)"
subject_of_test = "SF-539 CNS"
assigned_label = "not fulfilled"

[[record]]
molecule = "COc1c(OCCCN2CCOCC2)ccc2c3n(c(=NC(=O)c4cnc(N)nc4)nc12)CCN3"
subject_of_test = "SF-539 CNS"
assigned_label = "fulfilled"

[[record]]
molecule = "CN(C)CCn1c(=O)c2c3cc4c(cc3n(CCN(C)C)c2c2ccc(Cl)cc21)OCO4"
subject_of_test = "SF-539 CNS"
assigned_label = "not fulfilled"

[[record]]
molecule = "NS(=O)(=O)c1ccc(CCN2C(=O)/C(=C\\c3ccc(Cl)cc3)C=C2c2ccc3ccccc3c2)cc1"
subject_of_test = "SF-539 CNS"
assigned_label = "not fulfilled"

[[record]]
molecule = "Clc1nc(Cl)c2ncn(CC#CCn3cnc4c(Cl)nc(Cl)nc43)c2n1"
subject_of_test = "SF-539 CNS"
assigned_label = "fulfilled"


Confirm or reject: growth of COc1ccc(-c2cc3c(C)nc(N)nc3n(C3CCC(OCCO)CC3)c2=O)cn1 (centres undefined) lies strictly below 20%
fulfilled

Consider next the molecule Cc1sc2c(c1C)c(=O)nc1c(-c3nc(-c4ccccc4)cs3)n[nH]n12 in the same way.
not fulfilled

Consider next the molecule Cc1c(N)ccc(-c2ccc(N)c(C)c2S(=O)(=O)O)c1S(=O)(=O)O in the same way.
not fulfilled

Consider next the molecule CCN1CCN(Cc2ccc(NC(=O)Nc3nc(-c4cc(OC)c(OC)c(OC)c4)cs3)cc2C(F)(F)F)CC1 in the same way.
fulfilled

Consider next the molecule CC1(/C=N/NC(N)=S)NC(=O)NC1=O (centres undefined) in the same way.
not fulfilled

Consider next the molecule CNC(=O)c1cc(Oc2ccc3nc(NC(=O)Nc4ccc(Cl)c(C(F)(F)F)c4)sc3c2)ccn1 in the same way.
fulfilled

Consider next the molecule Cn1cc(-c2[nH]c3cc(NC(=O)[C@H](N)C4CCCCC4)cc4c3c2C=NNC4=O)cn1 in the same way.
fulfilled

Consider next the molecule Cc1cc2c(-c3nc4ccccn4c3N)c(O)c(O)cc2c(O)c1-c1c(C)cc2c(-c3nc4ccccn4c3N)c(O)c(O)cc2c1O in the same way.
fulfilled

Consider next the molecule Cc1cccc(Cl)c1NC(=O)c1cnc(Nc2cc(N3CCOCC3)cc(N3CCOCC3)c2)s1 in the same way.
fulfilled

Consider next the molecule CC1(COc2ccc3c(c2)ncn3-c2ccc3cccc(N4CCC(N)CC4)c3n2)COC1 in the same way.
fulfilled

====

system: EKVX NSCLC; test: NCI-60 one-dose screen, 48 h (100 = growth as untreated, 0 = no growth, -100 = all killed); conditions: 10 µM unless noted
This is part of a sample that, as a whole, favours compounds with a hit. Of some 83,000 tested, about 20% had one in any assay.
Category | rule: reported growth within range, see L = under 30%, M = from 30% up to 60%, H = 60% and over

Solved entries (count: 4):
[[record]]
molecule = "COc1cc2c(c(OC)c1)C1c3ccccc3NC(=O)N1CC2 (centres undefined)"
subject_of_test = "EKVX NSCLC"
assigned_label = "M"

[[record]]
molecule = "CC[C@@H]1C(=O)N(C)c2cnc(Nc3ccc(C(=O)NC4CCC(N5CCN(CC6CC6)CC5)CC4)cc3OC)nc2N1C(C)C (some centres undefined)"
subject_of_test = "EKVX NSCLC"
assigned_label = "L"

[[record]]
molecule = "NC[C@@](O)(c1ccc(Cl)cc1)c1ccc(-c2cn[nH]c2)cc1"
subject_of_test = "EKVX NSCLC"
assigned_label = "L"

[[record]]
molecule = "Cc1ccc(NC(=O)c2ccc(CN3CC[C@H](N(C)C)C3)c(C(F)(F)F)c2)cc1Nc1nccc(-c2cncnc2)n1"
subject_of_test = "EKVX NSCLC"
assigned_label = "L"


Which class does COc1cc2nccc(Oc3ccc(NC(=O)C4(C(=O)Nc5ccc(F)cc5)CC4)cc3)c2cc1OC fall in?
L

Consider next the molecule N#Cc1c(-c2ccc(C(F)(F)F)cc2)cc(NCC2CCS(=O)(=O)CC2)n2c1nc1ccccc12 in the same way.
H

Consider next the molecule CNC(=O)c1cc(Oc2cccc3nc(Nc4ccc(Oc5ccccc5)cc4)ccc23)ccn1 in the same way.
H

Consider next the molecule O=C(Cn1ccc2ccccc21)Nc1ccc(-c2nc3ccccc3s2)cc1 in the same way.
H

Consider next the molecule Cc1[nH]c(/C=C2\C(=O)Nc3ccc(F)cc32)c(C)c1C(=O)NC[C@H](O)CN1CCOCC1 in the same way.
M

Consider next the molecule CC#CC(=O)N1CCC[C@H]1c1nc(-c2ccc(C(=O)Nc3ccccn3)cc2)c2c(N)nccn12 in the same way.
H

Consider next the molecule CN1CCN(c2ccc(OC(F)(F)F)c(Nc3ncc4c(n3)-c3c(c(C(N)=O)nn3CCO)CC4)c2)CC1 in the same way.
M

Consider next the molecule COc1ccc(S(=O)(=O)N(C(C)=O)c2ccccc2/C=C/c2cc[n+]([O-])cc2)cc1 in the same way.
M
